Assignment: determine reported activation for the given compounds.
Test system: Nuclear hormone receptor DAF-12 (Heterodera glycines), GAL4 fusion
Assay: H. glycines DAF-12 receptor agonists, primary screen, cell-based, luminescence, HEK293, GAL4 fusion, UAS-luciferase (AID 687014);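 further: 0% = DMSO wells and 100% = sodium butyrate wells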
Conditions: HEK293 GAL4-hgDAF12 UAS-luciferase reporter, agonist luminescence; at 6.8 µM; stronger effect = higher value; normalized to butyrate control
About 6,800 (1.8%) of roughly 370,000 compounds were called active. Only a selection was taken, and actives are over-represented in it overall.
Give bare numbers, in %.

Worked examples follow.
compound | activation [%]
O=C(OCc1cc(=O)n2ccsc2n1)C1(c2ccc(Cl)cc2)CC1 | -1.52
O=C(OCC#CCSc1nnc(-c2ccco2)o1)c1ccc(F)cc1 | -3.04
O=C(NCc1ccco1)c1ccc(NS(=O)(=O)c2cccc([N+](=O)[O-])c2)cc1 | 0.98

Quick batch: activation for everything below.
1. CN(C)S(=O)(=O)c1cccc(C(=O)N/N=C\c2ccco2)c1
2. COc1ccc(C(C)(O)c2nc(-c3cc(F)cc(F)c3)cs2)cc1 (stereo not given)
3. CC(/C=N/NC(=O)c1cc(-c2ccc3ccccc3c2)n[nH]1)=C\c1ccco1
4. CCOC(=O)c1csc(NC(=O)C2CCCN(S(=O)(=O)c3ccc(Cl)s3)C2)n1 (stereo not given)
5. COc1ccc(Cn2ccc3ccc(-c4ccc5ccn(Cc6ccccc6C)c5c4)cc32)cc1
6. Cc1cc(C(=O)NN=C/C=C/c2ccco2)n[nH]1

Reply |
[3.58, -1.7, 20.6, -0.73, 8.22, -0.85]

Ask | Hello, please tell me recorded activation for this one: CN(CC(=O)Nc1ccc(Cl)cc1)C(=O)c1ccc(COc2ccccc2)cc1
Reply | 0.13
